Hello, the source for this data is ChEMBL document CHEMBL3886392, in case you need it.

- Target: Dual specificity protein kinase TTK (Homo sapiens, UniProt P33981)
- Sequence (P33981 whole entry): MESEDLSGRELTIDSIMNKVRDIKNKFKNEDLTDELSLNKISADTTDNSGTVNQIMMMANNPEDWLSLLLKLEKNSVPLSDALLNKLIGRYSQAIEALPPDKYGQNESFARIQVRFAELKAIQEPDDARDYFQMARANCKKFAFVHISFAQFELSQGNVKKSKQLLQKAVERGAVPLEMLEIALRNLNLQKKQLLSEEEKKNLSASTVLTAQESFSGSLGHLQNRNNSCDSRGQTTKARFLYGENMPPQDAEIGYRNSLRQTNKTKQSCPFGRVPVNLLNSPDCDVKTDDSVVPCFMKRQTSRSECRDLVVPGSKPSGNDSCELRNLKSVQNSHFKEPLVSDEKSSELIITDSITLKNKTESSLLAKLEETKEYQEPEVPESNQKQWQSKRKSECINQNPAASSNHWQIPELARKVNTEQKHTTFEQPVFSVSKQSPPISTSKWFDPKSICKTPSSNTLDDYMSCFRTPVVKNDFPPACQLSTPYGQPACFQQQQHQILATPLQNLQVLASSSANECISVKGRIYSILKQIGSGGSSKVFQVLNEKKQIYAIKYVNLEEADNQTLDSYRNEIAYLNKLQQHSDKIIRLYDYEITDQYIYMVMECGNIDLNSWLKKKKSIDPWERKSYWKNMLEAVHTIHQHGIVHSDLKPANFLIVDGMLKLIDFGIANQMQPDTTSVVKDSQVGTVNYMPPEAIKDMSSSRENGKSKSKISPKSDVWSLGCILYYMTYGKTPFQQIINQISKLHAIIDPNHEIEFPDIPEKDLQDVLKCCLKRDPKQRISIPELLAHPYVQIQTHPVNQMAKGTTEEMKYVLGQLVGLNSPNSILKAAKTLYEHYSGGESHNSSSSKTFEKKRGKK
Measurement Kind: IC50

In [3]: df
Out[3]:
                                   compound  result
0  C#Cc1cn2c(-c3ccc(C(=O)NC4C[C@@H]4F)c(C)c3)cnc2c(NCCC(F)(F)F)n1 (stereo in doubt)   36 nM
